# MEASURED_ON: T1, Recombinant MBP-mutCALR Type 1 fusion protein (human)
# T1 construct: custom made at Cepter; also called recombinant mutCALR protein
# METHOD_DESCRIPTION: SPR, IgG captured, 1:1 fit, Exp. 1
Lab note: anything with Kd below 5 nM is marked Y; values at 5 nM or higher are marked N.

>  <BINDER>
anti-mutCALR antibody clone 38 (antibody, human IgG1, kappa, V domains shown, human IgG1) VH: EVQPVQSGAEVKKPGSSVKVSCKASGGTFSSYAISWVRQAPGQGLEWMGLVDPEDGETIYAEKFRGRVTITADTSTDTAYMELSSLRSEDTAVYYCATEESYGPWGQGTLVTVSS VL: DIQLTQSPSSLSASVGDRVTITCQASQDISNYLNWYQQKPGKAPKLLIYDASNLETGVPSRFSGSGSGTEFTLTISSLQPEDFATYYCQQLNSYPLTFGGGTKLEIKR

>  <LABEL>
Y

$$$$
>  <BINDER>
anti-mutCALR antibody clone 3 (antibody, human IgG1, lambda, V domains shown, human IgG1) VH: EVQLVQSGAEVKKPGASVKVSCKVSGYTLTELSMQWVRQAPGKGLEWMGGFDPDDGETMYAERFQGRLTVTEDTSTDTVYMELRSLTSEDTALYFCATSPGYDFFDYWGQGTLVTVSS VL: SYVLTQPPSVSVAPGQTARITCGGNNIGSKSVHWYQQKPGQAPVLVVYDDSDRPSGIPERFSGSNSGNTATLTINRVEAGDEADYYCQVWDSSNDLLIFGGGTKLTVLG

>  <LABEL>
Y

$$$$
>  <BINDER>
anti-mutCALR antibody clone 27 (antibody, human IgG1, lambda, V domains shown, human IgG1) VH: EVQLVQSGAEVKKPGASVKVSCKVSGYTLTELSMQWVRQAPGKGLEWMGGFDPDDGETMYAEKFQGRLTVTEDTSTDTVYMELRSLTSEDTALYFCATSPGYDFFDYWGQGTLVTVSS VL: SYVLTQPPSVSVAPGQTARITCGGNNIGIKSVHWYQQKPGQAPVLVVYDDRDRPSGIPERFSGSNSGNTATLTINRVEAGDEADYYCQVWDSSNDLLIFGGGTKLTVLG

>  <LABEL>
N

$$$$
>  <BINDER>
anti-mutCALR antibody clone 24 (antibody, human IgG1, lambda, V domains shown, human IgG1) VH: EVQLVQSGAEVKKPGASVKVSCKVSGYTLTELSMQWVRQAPGKGLEWMGGFDPDDGETMYAEKLQGRLTVTEDTSTDTVYMELRSLTSEDTALYFCATSPGYDFFDYWGQGTLVTVSS VL: SYVLTQPPSVSVAPGKTARITCGGNNIGSKSVHWYQQKPGQAPVLVVYDDSDRPSGIPERFSGSNSGNTATLTINRVEAGDEADYYCQVWDSSNDLLIFGGGTKLTVLG

>  <LABEL>
N

$$$$
>  <BINDER>
anti-mutCALR antibody clone 48 (antibody, human IgG1, lambda, V domains shown, human IgG1) VH: EVQLVQSGAEVKKPGSSVKVSCKASGGTFSSYAISWVRQAPGQGLEWMGGIIPIFGTANYAQKFQGRVTITADESTSTAYMELSSLRSEDTAVYYCASSPLRGSGWYWHYYYGMDVWGQGTTVTVSS VL: SYVLTQPPSVSVAPGKTARITCGGNNIGSKSVHWYQQKPGQAPVLVIYQDRKRPSGIPERFSGSNSGNTATLTISGTQAMDEADYYCQAWDSSTAVFGGGTKLTVLG

>  <LABEL>
Y

$$$$
>  <BINDER>
anti-mutCALR antibody clone 35 (antibody, human IgG1, lambda, V domains shown, human IgG1) VH: QVQLVQSGAEVKKPGATVKISCKVSGYSFTDYFIHWVQQAPGKGLAWVGLVDPEDGETIYAERFQGRVTITADTSTDTAYMELSSLRSEDTAVYYCATPGGILTDPDAFDIWGQGTMVTVSS VL: QSALTQPASVSGSPGQSITISCTGTSSDVGGYNYVSWYQQHPGKAPKLMIYEVSNRPSGVSNRFSGSKSGNTASLTISGLQAEDEADYYCSSYTSSSTPYVFGTGTKVTVLG

>  <LABEL>
Y

$$$$
>  <BINDER>
anti-mutCALR antibody clone 8 (antibody, human IgG1, lambda, V domains shown, human IgG1) VH: QVQLVQSGAEVKKPGSSVKVSCKVSGYTLTELSMQWVRQAPGKGLEWMGGFDPDDGETMYAEKFQGRLTVTEDTSTDTVYMELRSLTSEDTALYFCATSPGYDFFDYWGQGTLVTVSS VL: SYELTQPPSVSVAPGQTARITCGGNNIGSKSVHWYQQKPGQAPVLVVYDDSDRPSGIPERFSGSNSGRTATLTISRVEAGDEADYHCQVWDSSSDHLVFGGGTKLTVLG

>  <LABEL>
Y

$$$$
